target: IL-17A/A (Homo sapiens, UniProt Q16552); assay: IL-17A/A HEK-Blue cell assay; conditions: HEK-Blue IL-17A reporter cell line (HEK 293), IL-17A/A stimulation, 20 hours incubation, SEAP read at A630
Sequence (Q16552 24-155): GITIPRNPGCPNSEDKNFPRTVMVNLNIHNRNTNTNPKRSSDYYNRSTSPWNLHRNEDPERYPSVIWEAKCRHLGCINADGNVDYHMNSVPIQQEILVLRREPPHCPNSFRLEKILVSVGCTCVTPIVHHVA
Readout Label: IC50

{"Compound": "O=C(N[C@H](c1cn2ncc(CC3C[C@@H](C(F)(F)F)NC3=O)cc2n1)C1CCC(F)(F)CC1)c1nonc1C1CC1 (single isomer, unassigned)", "Readout Label": "IC50", "Reported Value": "< 100 nM"}
{"Compound": "CCn1nccc1C(=O)N[C@H](c1cn2nc(C(C)C3C[C@@H](C(F)(F)F)CNC3=O)ccc2n1)C(C1CC1)C1CC1 (single isomer, unassigned) [Compound 56]", "Readout Label": "IC50", "Reported Value": "> 1000 nM"}
{"Compound": "CCn1nccc1C(=O)N[C@H](c1cn2nc(CC3CC(C)(C)CNC3=O)ccc2n1)[C@H]1CC[C@H](C)CC1 (some centres unmarked)", "Readout Label": "IC50", "Reported Value": "> 1000 nM"}
{"Compound": "Cc1nonc1C(=O)N[C@H](c1cn2nc(CC3CCNC3=O)ccc2n1)C1CCCCCC1 (single isomer, unassigned)", "Readout Label": "IC50", "Reported Value": "100 to 1000 nM"}
{"Compound": "O=C(N[C@H](c1cn2nc(CC3C[C@@H](C(F)(F)F)CNC3=O)ccc2n1)[C@@H]1CCCC(F)(F)C1)c1conc1C1CC1 (some centres unmarked)", "Readout Label": "IC50", "Reported Value": "100 to 1000 nM"}
{"Compound": "CCn1nccc1C(=O)N[C@H](c1cn2nc(CC3C(=O)NCCC3C)ccc2n1)[C@H]1CC[C@H](C)CC1 (single isomer, unassigned) [Compound 54]", "Readout Label": "IC50", "Reported Value": "100 to 1000 nM"}
{"Compound": "CC(C)n1nccc1C(=O)N[C@H](c1cn2nc(CC3C[C@@H](C(F)(F)F)CNC3=O)ccc2n1)C1CCC(F)(F)CC1 (some centres unmarked)", "Readout Label": "IC50", "Reported Value": "< 100 nM"}
{"Compound": "CCn1nccc1C(=O)N[C@H](c1cn2nc(CC3C[C@@H](C(F)(F)F)CNC3=O)c(N(C)CC(F)(F)F)cc2n1)C1CCC(F)(F)CC1 (single isomer, unassigned) [Compound 181]", "Readout Label": "IC50", "Reported Value": "< 100 nM"}
{"Compound": "CCn1nccc1C(=O)N[C@H](c1cn2nc(CC3C[C@H](C(F)(F)F)CNC3=O)ccc2n1)C1CCCCCC1 (some centres unmarked)", "Readout Label": "IC50", "Reported Value": "< 100 nM"}
{"Compound": "CCn1nccc1C(=O)NC(c1cn2nc(CC3CC(C)CNC3=O)ccc2n1)C1CCC(C)CC1 (single isomer, unassigned) [Compound 51]", "Readout Label": "IC50", "Reported Value": "100 to 1000 nM"}
{"Compound": "O=C(N[C@H](c1cn2nc(CC3C[C@@H](C(F)(F)F)CNC3=O)ccc2n1)C1CCC(F)(F)CC1)c1conc1C1CC1(F)F (single isomer, unassigned) [Compound 126]", "Readout Label": "IC50", "Reported Value": "< 100 nM"}
{"Compound": "CCn1nccc1C(=O)N[C@H](c1cn2nc(CC3C(=O)NCC3C(F)(F)F)ccc2n1)C(C1CC1)C1CC1 (single isomer, unassigned) [Compound 45]", "Readout Label": "IC50", "Reported Value": "> 1000 nM"}
{"Compound": "CCn1nccc1C(=O)N[C@H](c1cn2nc(CC3C[C@@H](C(F)(F)F)CNC3=O)c(C(=O)O)cc2n1)C1CCC(F)(F)CC1 (some centres unmarked)", "Readout Label": "IC50", "Reported Value": "100 to 1000 nM"}
{"Compound": "CC[C@@H](c1ccc(F)cc1)C(NC(=O)c1ccnn1CC)c1cn2nc(CC3CC(F)(F)CNC3=O)ccc2n1 (single isomer, unassigned) [Compound 31]", "Readout Label": "IC50", "Reported Value": "100 to 1000 nM"}
{"Compound": "CCn1nccc1C(=O)N[C@H](c1cn2nc(CC3CC(F)(F)CNC3=O)c(C)cc2n1)C1CCC(F)(F)CC1 (single isomer, unassigned) [Compound 77]", "Readout Label": "IC50", "Reported Value": "> 1000 nM"}
{"Compound": "CCn1nccc1C(=O)N[C@H](c1cn2nc(CC3CC(C(C)(F)F)NC3=O)ccc2n1)C1CCC(F)(F)CC1 (single isomer, unassigned) [Compound 68]", "Readout Label": "IC50", "Reported Value": "> 1000 nM"}
{"Compound": "Cn1c(C#N)ccc1C(=O)N[C@H](c1cn2nc(CC3C[C@@H](C(F)(F)F)CNC3=O)ccc2n1)C1CCC(F)(F)CC1 (some centres unmarked)", "Readout Label": "IC50", "Reported Value": "100 to 1000 nM"}
{"Compound": "CCn1nccc1C(=O)N[C@H](c1cn2nc(CC3CC(CC(F)(F)F)CNC3=O)ccc2n1)C1CCC(F)(F)CC1 (single isomer, unassigned) [Compound 66]", "Readout Label": "IC50", "Reported Value": "100 to 1000 nM"}
{"Compound": "CCn1nccc1C(=O)N[C@H](c1cn2nc(CC3C[C@H](C(F)(F)F)CNC3=O)ccc2n1)[C@H]1CC[C@H](C)CC1 (some centres unmarked)", "Readout Label": "IC50", "Reported Value": "< 100 nM"}
{"Compound": "O=C(N[C@H](c1cn2nc(CC3C[C@@H](C(F)(F)F)CNC3=O)ccc2n1)C1CCC(F)(F)CC1)c1nonc1CC(F)(F)F (some centres unmarked)", "Readout Label": "IC50", "Reported Value": "100 to 1000 nM"}
{"Compound": "CCn1nccc1C(=O)N[C@H](c1cn2nc(C[C@H]3CCCNC3=O)ccc2n1)C(C1CC1)C1CC1 (single isomer, unassigned)", "Readout Label": "IC50", "Reported Value": "> 1000 nM"}
{"Compound": "CCn1nccc1C(=O)NC(c1cn2nc(CC3C[C@@H](C(F)(F)F)CNC3=O)ccc2n1)C1CCC2CC2CC1 (single isomer, unassigned) [Compound 176]", "Readout Label": "IC50", "Reported Value": "< 100 nM"}
{"Compound": "O=C(N[C@H](c1cn2nc(CC3C[C@@H](C(F)(F)F)CNC3=O)ccc2n1)C1CCC(F)(F)CC1)c1conc1CC(F)F (some centres unmarked)", "Readout Label": "IC50", "Reported Value": "100 to 1000 nM"}
